These data points were gathered from paper PMC11746154.

B1: Rec104-LexA [S. cerevisiae] / Gal4AD-Spo11 [S. cerevisiae] (parent)
chain 1: MALEGLRKKYKTRQELVKALTPKRRSIHLNSNGHSNGTPCSNADVLAHIKHFLSLAANSLEQHQQPISIVFQNKKKKGDTSSPDIHTTLDFPLNGPHLCTHQFKLKRCAILLNLLKVVMEKLPLGKNTTVRDIFYSNVELFQRQANVVQWLDVIRFNFKLSPRKSLNIIPAQKGLVYSPFPIDIYDNILTCENEPKMQKQTIFPGKPCLIPFFQDDAVIKLGTTSMCNIVIVEKEAVFTKLVNNYHKLSTNTMLITGKGFPDFLTRLFLKKLEQYCSKLISDCSIFTDADPYGISIALNYTHSNERNAYICTMANYKGIRITQVLAQNNEVHNKSIQLLSLNQRDYSLAKNLIASLTANSWDIATSPLKNVIIECQREIFFQKKAEMNEIDARIFEYK
chain 2: MSIEEEDTNKITCTQDFLHQYFVTERVSIQFGLNNKTVKRINKDEFDKAVNCIMSWTNYPKPGLKRTASTYLLSNSFKKSATVSLPFILGDPVCMPKRVESNNNDTCLLYSDTLYDDPLIQRNDQAGDEIEDEFSFTLLRSEVNEIRPISSSSTAQILQSDYSALMYERQASNGSIFQFSSP

Variants of: B1
assay.procedure: Y2H β-galactosidase assay
condition.context: with Gal4AD-Spo11 [S. cerevisiae]; parent: 1; read off a plot
property.name: response (normalized β-gal units)
// return just the number, without any unit appended

Guide cases for response (normalized β-gal units), answers given:
sequence.change | response (normalized β-gal units)
chain 2 D16R | 0.53
chain 2 D16A | 1.1
chain 2 Q20A | 0.75

Enquiry: Entry under review: chain 2 F22A . Reported response (normalized β-gal units)?
Return: 0.93

Enquiry: Entry under review: chain 2 Y21A . Reported response (normalized β-gal units)?
Return: 0.02
